Here the recorded growth is given for each entry.
tested on: TK-10 renal; test: NCI-60 one-dose screen, 48 h (100 = growth as untreated, 0 = no growth, -100 = all killed); settings: 10 µM unless noted
This is part of a sample that, as a whole, favours compounds with a hit. Of some 83,000 tested, about 20% had one in any assay. The source made the active and inactive calls. How the source made its calls: active means growth percent below 10; inactive means the rest.

[
  {
    "compound": "COc1ccc(-c2cc(-c3cccc4ccccc34)n3c(n2)nc2ccccc23)cc1OC",
    "growth": "53.1% (inactive)"
  },
  {
    "compound": "O=c1cc(-c2ccccc2)nc2sc(-c3c[nH]c4ccc(Br)cc34)nn12",
    "growth": "110% (inactive)"
  },
  {
    "compound": "N=c1c2cc(-c3ccccc3)oc2ncn1/N=C/c1ccccc1",
    "growth": "80.3% (inactive)"
  },
  {
    "compound": "C#C[C@]1(O)CC[C@H]2[C@@H]3CC=C4c5sc(-c6cccc(F)c6)nc5CC[C@]4(C)[C@H]3CC[C@@]21C",
    "growth": "121% (inactive)"
  },
  {
    "compound": "COc1ccc(-c2nc(SCCC(C)C)nc(N/N=C\\c3ccc(O)cc3)c2C#N)cc1",
    "growth": "157% (inactive)"
  },
  {
    "compound": "CC(C)Sc1nc(NC2CC2)c(C#N)c(-c2ccccc2)n1",
    "growth": "123% (inactive)"
  },
  {
    "compound": "O=C(CSc1ccc(-c2nc3ccccc3[nH]2)cn1)N1CCN(c2ccccc2F)CC1",
    "growth": "86.5% (inactive)"
  },
  {
    "compound": "Cc1nn(-c2ccccc2)cc1/C=N/Nc1nc(Nc2ccccc2)nc(Nc2ccc(S(N)(=O)=O)cc2)n1",
    "growth": "44.5% (inactive)"
  }
]

Inquiry: Field: growth (TK-10 renal). Entry: "COC[C@]12CC[C@@H](C)[C@H](C)[C@H]1C1=CC[C@@H]3[C@@]4(C)CCCNC(C)(C)[C@@H]4CC[C@@]3(C)[C@]1(C)CC2"
Reply text: 61.9% (inactive)

Inquiry: Form field - read-out: growth; system: TK-10 renal; submitted item: "O=C(O)c1ccc(-n2cc(CNc3ccc(F)cc3)c(-c3ccc(C(F)(F)F)cc3)n2)cc1"
Reply text: 110% (inactive)

Inquiry: For the record "NC(=O)c1c(NC(=O)c2cccc(C(F)(F)F)c2F)sc2c1CCC(=O)C2" , what value of growth is listed for TK-10 renal?
Reply text: 29.8% (inactive)

Inquiry: Missing value: growth, TK-10 renal, entry "COc1ccc(/C=N\NC(=O)c2ccc3nc(-c4ccc(Br)cc4)[nH]c3c2)cc1" . Fill in?
Reply text: 51.6% (inactive)

Inquiry: Record CCN1C(=O)N(CC)C2SC(N/N=C/c3ccccc3)=NC21 (centres undefined) : what is its growth with TK-10 renal?
Reply text: 81.3% (inactive)

Inquiry: Give recorded growth with TK-10 renal for the following compound: "Cc1cc2nc(C(Cl)Cl)nc(-c3ccco3)n2n1"
Reply text: 89.5% (inactive)

Inquiry: Return growth measured with TK-10 renal given this compound: "COc1ccc2c(ccn2C(=O)N2c3ccccc3Sc3ccccc32)c1"
Reply text: 65.1% (inactive)

Inquiry: # value lookup — system TK-10 renal, readout growth, item "Oc1ccc(CSc2nnc(-c3ccc(Oc4ccccc4)cc3)n2-c2ccccc2)c2cccnc12"
Reply text: 23.6% (inactive)

Inquiry: Give growth (TK-10 renal) of the following compound: CC(c1ccccc1)N1C(=O)/C(=C/c2csc(C#N)n2)SC1=S (centres undefined)
Reply text: 119% (inactive)

Inquiry: Quick check: growth on TK-10 renal, item "Cc1ccc(/C=C/CC(=O)Nc2ccc(C(=O)Nc3ccc(F)cc3N)cc2)cn1" ?
Reply text: 34.9% (inactive)

Inquiry: Which measured growth belongs to Nc1nc(N)c2c(n1)NC(c1ccc(Cl)cc1)CC(c1ccc(Nc3nc(NCCO)nc(Nc4ccc(Cl)cc4)n3)cc1)=N2 (centres undefined) , tested on TK-10 renal?
Reply text: 72.9% (inactive)

Data origin: PubChem BioAssay (NCI)
